Target: N-type calcium channel (NTCC) (Homo sapiens, UniProt Q00975)
Assay: FLIPR calcium mobilization assay for N-type calcium channel
Details: calcium mobilization in vitro assay; differentiated IMR32 cells, 5 μM nitrendipine, 90 mM KCl
endpoint: IC50 (µM)
Answer with a number only, understood to be in µM.

Supply IC50 value. Item: O=C(CNC1CCCC1)N1CCC(N(C2CC2)S(=O)(=O)c2cccc(C(F)(F)F)c2)CC1 [Compound 25c]
0.28

Supply IC50 value. Item: CC(C)N(C1CCN(C(=O)CN2CCC(F)(F)C2)CC1)S(=O)(=O)c1cccc(C(F)(F)F)c1 [Compound 25f]
3.98

Supply IC50 value. Item: O=C(c1ccccn1)N1CCC(N(C2CC2)S(=O)(=O)c2cccc(C(F)(F)F)c2)CC1
5.53

* * *

Target: L-type calcium channel (LTCC) (Rattus norvegicus, UniProt P22002)
Construct: The 6.5 kb cDNA encoding the L-type calcium channel α1c subunit was cloned by PCR amplification from rat heart cDNA
Sequence (P22002 whole entry): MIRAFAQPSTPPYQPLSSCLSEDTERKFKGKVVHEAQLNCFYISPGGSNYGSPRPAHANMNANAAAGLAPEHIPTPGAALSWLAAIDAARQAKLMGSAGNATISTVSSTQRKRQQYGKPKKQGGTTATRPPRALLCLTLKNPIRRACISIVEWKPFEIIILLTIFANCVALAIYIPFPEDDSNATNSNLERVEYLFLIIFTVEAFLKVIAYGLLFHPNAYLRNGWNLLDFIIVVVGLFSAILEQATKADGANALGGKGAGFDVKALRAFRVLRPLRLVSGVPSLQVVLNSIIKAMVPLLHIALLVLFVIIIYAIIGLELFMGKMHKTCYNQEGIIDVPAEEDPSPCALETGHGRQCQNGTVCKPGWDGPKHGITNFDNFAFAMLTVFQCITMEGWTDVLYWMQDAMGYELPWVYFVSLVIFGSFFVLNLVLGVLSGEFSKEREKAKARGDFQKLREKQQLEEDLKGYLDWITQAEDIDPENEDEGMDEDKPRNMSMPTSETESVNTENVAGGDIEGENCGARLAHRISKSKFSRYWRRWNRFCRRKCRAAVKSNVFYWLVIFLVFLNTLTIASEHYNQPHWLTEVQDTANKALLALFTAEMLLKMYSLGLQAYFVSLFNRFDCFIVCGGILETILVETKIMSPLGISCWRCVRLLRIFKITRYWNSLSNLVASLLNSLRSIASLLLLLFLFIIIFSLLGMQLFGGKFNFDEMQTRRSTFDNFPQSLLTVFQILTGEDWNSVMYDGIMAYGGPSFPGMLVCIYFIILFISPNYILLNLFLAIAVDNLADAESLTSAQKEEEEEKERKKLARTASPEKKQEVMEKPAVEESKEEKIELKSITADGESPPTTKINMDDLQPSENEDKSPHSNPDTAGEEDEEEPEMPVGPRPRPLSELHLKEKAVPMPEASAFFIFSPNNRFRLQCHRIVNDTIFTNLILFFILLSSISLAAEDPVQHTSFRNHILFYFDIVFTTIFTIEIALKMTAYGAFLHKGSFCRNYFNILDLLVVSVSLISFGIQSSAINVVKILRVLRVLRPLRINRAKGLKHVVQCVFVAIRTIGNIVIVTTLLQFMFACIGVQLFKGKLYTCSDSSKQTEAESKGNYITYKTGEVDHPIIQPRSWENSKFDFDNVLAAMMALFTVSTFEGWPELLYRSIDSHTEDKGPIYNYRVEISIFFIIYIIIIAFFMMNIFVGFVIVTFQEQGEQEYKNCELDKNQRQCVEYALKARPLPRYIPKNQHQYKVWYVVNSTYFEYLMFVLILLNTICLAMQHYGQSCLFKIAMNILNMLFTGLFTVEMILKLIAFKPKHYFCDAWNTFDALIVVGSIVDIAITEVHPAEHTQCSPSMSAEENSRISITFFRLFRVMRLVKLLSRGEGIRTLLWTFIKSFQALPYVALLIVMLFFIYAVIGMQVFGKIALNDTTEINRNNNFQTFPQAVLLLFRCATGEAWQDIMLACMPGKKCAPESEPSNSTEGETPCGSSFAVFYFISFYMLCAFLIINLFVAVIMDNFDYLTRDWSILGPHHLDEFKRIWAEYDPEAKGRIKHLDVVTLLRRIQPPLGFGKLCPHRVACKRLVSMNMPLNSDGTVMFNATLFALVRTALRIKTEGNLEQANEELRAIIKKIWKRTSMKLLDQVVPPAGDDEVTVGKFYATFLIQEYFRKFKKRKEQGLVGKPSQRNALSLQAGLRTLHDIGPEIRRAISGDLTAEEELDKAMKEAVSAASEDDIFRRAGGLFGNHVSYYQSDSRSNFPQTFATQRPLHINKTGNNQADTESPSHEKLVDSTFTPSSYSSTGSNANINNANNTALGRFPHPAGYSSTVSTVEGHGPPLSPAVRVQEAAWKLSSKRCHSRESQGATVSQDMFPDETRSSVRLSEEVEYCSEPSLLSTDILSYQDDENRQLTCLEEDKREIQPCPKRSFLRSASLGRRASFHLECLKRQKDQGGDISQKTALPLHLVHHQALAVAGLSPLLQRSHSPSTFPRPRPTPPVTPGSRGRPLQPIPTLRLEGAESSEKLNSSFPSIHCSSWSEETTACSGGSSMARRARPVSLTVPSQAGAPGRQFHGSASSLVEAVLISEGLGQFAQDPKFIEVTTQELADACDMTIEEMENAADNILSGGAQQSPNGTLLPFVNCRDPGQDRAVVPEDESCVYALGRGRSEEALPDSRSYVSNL
Sequence (P54290 25-944 partner limits assumed): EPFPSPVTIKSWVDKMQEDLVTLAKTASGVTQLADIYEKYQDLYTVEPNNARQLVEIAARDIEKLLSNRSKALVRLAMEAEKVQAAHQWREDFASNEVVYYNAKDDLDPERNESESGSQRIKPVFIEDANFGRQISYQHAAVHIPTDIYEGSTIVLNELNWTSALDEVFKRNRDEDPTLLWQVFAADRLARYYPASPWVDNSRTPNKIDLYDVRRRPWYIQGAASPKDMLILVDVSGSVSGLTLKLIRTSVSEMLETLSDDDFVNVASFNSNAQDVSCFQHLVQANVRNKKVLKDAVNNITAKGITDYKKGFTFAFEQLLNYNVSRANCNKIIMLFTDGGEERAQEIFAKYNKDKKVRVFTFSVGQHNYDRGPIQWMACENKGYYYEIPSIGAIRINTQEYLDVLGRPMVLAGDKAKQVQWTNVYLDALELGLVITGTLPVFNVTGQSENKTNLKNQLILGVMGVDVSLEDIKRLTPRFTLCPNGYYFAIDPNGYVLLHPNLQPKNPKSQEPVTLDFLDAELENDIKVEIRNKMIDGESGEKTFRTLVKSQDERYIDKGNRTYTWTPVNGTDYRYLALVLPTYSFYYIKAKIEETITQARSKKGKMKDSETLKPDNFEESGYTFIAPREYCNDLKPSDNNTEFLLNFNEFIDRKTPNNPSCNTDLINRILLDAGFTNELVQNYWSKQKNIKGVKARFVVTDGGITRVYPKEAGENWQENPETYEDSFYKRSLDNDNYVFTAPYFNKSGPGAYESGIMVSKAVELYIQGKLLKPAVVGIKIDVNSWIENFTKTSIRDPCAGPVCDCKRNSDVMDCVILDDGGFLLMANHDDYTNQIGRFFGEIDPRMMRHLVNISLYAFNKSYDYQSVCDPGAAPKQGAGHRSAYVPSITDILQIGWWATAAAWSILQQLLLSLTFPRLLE
Sequence (P54290 945-1091 partner limits assumed): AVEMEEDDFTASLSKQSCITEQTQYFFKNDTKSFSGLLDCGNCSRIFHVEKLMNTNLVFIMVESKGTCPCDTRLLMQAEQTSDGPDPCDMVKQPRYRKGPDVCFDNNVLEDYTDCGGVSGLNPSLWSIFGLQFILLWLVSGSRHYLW
Sequence (P54283 whole entry partner): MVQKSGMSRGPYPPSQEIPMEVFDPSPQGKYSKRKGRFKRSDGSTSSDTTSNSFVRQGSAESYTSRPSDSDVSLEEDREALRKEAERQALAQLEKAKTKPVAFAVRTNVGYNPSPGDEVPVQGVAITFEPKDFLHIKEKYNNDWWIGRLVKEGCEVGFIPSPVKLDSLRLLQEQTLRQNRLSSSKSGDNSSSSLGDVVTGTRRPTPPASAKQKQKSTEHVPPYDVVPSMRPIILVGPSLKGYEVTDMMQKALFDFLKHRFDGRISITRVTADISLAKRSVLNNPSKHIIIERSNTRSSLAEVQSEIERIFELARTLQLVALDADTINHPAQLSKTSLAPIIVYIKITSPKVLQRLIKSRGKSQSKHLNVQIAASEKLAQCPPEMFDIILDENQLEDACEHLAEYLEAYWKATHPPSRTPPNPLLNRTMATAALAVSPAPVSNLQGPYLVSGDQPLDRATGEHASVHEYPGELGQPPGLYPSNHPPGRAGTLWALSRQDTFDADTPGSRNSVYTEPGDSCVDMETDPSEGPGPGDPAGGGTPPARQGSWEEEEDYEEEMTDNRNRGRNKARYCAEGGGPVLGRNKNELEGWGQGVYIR
Assay: FLIPR calcium mobilization assay for L-type calcium channel
Details: calcium mobilization in vitro assay; HEK293 cells stably expressing recombinant rat LTCC subunits (α1c, α2δ, β1), 90 mM KCl
endpoint: IC50

State the measured IC50 (L-type calcium channel (LTCC) (Rattus norvegicus, UniProt P22002)) of Nc1ccccc1C(=O)N1CCC(N(C2CC2)S(=O)(=O)c2cccc(C(F)(F)F)c2)CC1 [Compound 11]
10 to 20 µM

State the measured IC50 (L-type calcium channel (LTCC) (Rattus norvegicus, UniProt P22002)) of CC(C)N(C1CCN(C(=O)CNC2CCCCC2)CC1)S(=O)(=O)c1cccc(C(F)(F)F)c1 [Compound 25a]
10 to 20 µM

State the measured IC50 (L-type calcium channel (LTCC) (Rattus norvegicus, UniProt P22002)) of N[C@@H]1CCC[C@@H]1C(=O)N1CCC(N(C2CC2)S(=O)(=O)c2cccc(C(F)(F)F)c2)CC1 (racemic) [Compound 5]
> 20 µM

State the measured IC50 (L-type calcium channel (LTCC) (Rattus norvegicus, UniProt P22002)) of O=C(c1ccccc1[N+](=O)[O-])N1CCC(N(C2CC2)S(=O)(=O)c2cccc(C(F)(F)F)c2)CC1 [Compound 10]
3.06 µM

State the measured IC50 (L-type calcium channel (LTCC) (Rattus norvegicus, UniProt P22002)) of O=C(c1ccccc1NCCO)N1CCC(N(C2CC2)S(=O)(=O)c2cccc(C(F)(F)F)c2)CC1 [Compound 13]
> 20 µM

State the measured IC50 (L-type calcium channel (LTCC) (Rattus norvegicus, UniProt P22002)) of CC(C)N(C1CCN(C(=O)CN2CCCC(F)(F)C2)CC1)S(=O)(=O)c1cccc(C(F)(F)F)c1 [Compound 25e]
> 20 µM

State the measured IC50 (L-type calcium channel (LTCC) (Rattus norvegicus, UniProt P22002)) of N[C@@H]1CCCC[C@@H]1C(=O)N1CCC(N(C2CC2)S(=O)(=O)c2cccc(C(F)(F)F)c2)CC1 (racemic) [Compound 4]
> 20 µM

State the measured IC50 (L-type calcium channel (LTCC) (Rattus norvegicus, UniProt P22002)) of O=C(CNC1CCCC1)N1CCC(N(C2CC2)S(=O)(=O)c2cccc(C(F)(F)F)c2)CC1 [Compound 25c]
> 20 µM

State the measured IC50 (L-type calcium channel (LTCC) (Rattus norvegicus, UniProt P22002)) of CC(C)N(C1CCN(C(=O)CN2CCC(F)(F)C2)CC1)S(=O)(=O)c1cccc(C(F)(F)F)c1 [Compound 25f]
7.81 µM

* * *

What IC50 was measured for each of the following?
Biological target: N-type calcium channel (NTCC) (Homo sapiens, UniProt Q00975)
Experiment: FLIPR calcium mobilization assay for N-type calcium channel
Conditions: calcium mobilization in vitro assay; differentiated IMR32 cells, 5 μM nitrendipine, 90 mM KCl
Answer with a number only, understood to be in nM.

Supply IC50 value. Item: O=C(c1ccccc1NCCO)N1CCC(N(C2CC2)S(=O)(=O)c2cccc(C(F)(F)F)c2)CC1
330

Supply IC50 value. Item: N[C@@H]1CCC[C@@H]1C(=O)N1CCC(N(C2CC2)S(=O)(=O)c2cccc(C(F)(F)F)c2)CC1 (racemic)
290

Supply IC50 value. Item: CC(C)N(C1CCN(C(=O)CNC2CCCCC2)CC1)S(=O)(=O)c1cccc(C(F)(F)F)c1 [Compound 25a]
190

Supply IC50 value. Item: O=C(c1cccnc1)N1CCC(N(C2CC2)S(=O)(=O)c2cccc(C(F)(F)F)c2)CC1
7250

Supply IC50 value. Item: O=C(c1ccc(=O)[nH]c1)N1CCC(N(C2CC2)S(=O)(=O)c2cccc(C(F)(F)F)c2)CC1
8580

Supply IC50 value. Item: O=C(CCN[C@H]1CC[C@H](O)CC1)N1CCC(N(C2CC2)S(=O)(=O)c2cccc(C(F)(F)F)c2)CC1
3040

Supply IC50 value. Item: O=C(c1ccncc1)N1CCC(N(C2CC2)S(=O)(=O)c2cccc(C(F)(F)F)c2)CC1
8680

Supply IC50 value. Item: CC(C)N(C1CCN(C(=O)CN2CCCC(F)(F)C2)CC1)S(=O)(=O)c1cccc(C(F)(F)F)c1 [Compound 25e]
880

Supply IC50 value. Item: O=C(c1ccccc1[N+](=O)[O-])N1CCC(N(C2CC2)S(=O)(=O)c2cccc(C(F)(F)F)c2)CC1
760

Supply IC50 value. Item: CC(C)N(C1CCN(C(=O)[C@H]2CCC[C@H]2N)CC1)S(=O)(=O)c1cccc(C(F)(F)F)c1 (racemic)
3690

Supply IC50 value. Item: N[C@@H]1CCCC[C@@H]1C(=O)N1CCC(N(C2CC2)S(=O)(=O)c2cccc(C(F)(F)F)c2)CC1 (racemic)
570

Supply IC50 value. Item: Nc1ccccc1C(=O)N1CCC(N(C2CC2)S(=O)(=O)c2cccc(C(F)(F)F)c2)CC1
680

Supply IC50 value. Item: O=C(CCN1CCC(O)CC1)N1CCC(N(C2CC2)S(=O)(=O)c2cccc(C(F)(F)F)c2)CC1
2470

Supply IC50 value. Item: CC(C)N(C1CCN(C(=O)CN2CCCC(O)C2)CC1)S(=O)(=O)c1cccc(C(F)(F)F)c1 (stereo not drawn) [Compound 25b]
3350

Supply IC50 value. Item: CC(C)N(C1CCN(C(=O)CN2Cc3ccccc3C2)CC1)S(=O)(=O)c1cccc(C(F)(F)F)c1 [Compound 25d]
1140
